target: DNA topoisomerase 1 (Homo sapiens) (UniProt P11387); experiment: Topoisomerase I DNA relaxation activity was evaluated by Fluorescence assay using Ethidium Bromide before heat denaturation of pBR322 DNA at concentration 50 uM; conditions: Escherichia coli
# Change per record follows
readout-name: Change (%)

1. CN(C)CCCNC(=O)c1cc(NC(=O)c2cc(NC(=O)Cn3cc(C4=C(c5c[nH]c6ccccc56)C(=O)NC4=O)c4ccccc43)cn2C)cn1C :: 10
2. COC(=O)c1cc(NC(=O)c2cc(NC(=O)c3cc(NC(=O)Cn4cc(C5=C(c6c[nH]c7ccccc67)C(=O)NC5=O)c5ccccc54)cn3C)cn2C)cn1C :: 9
3. CC[C@@]1(O)C(=O)OCc2c1cc1n(c2=O)Cc2cc3ccccc3nc2-1 :: 12
4. COC(=O)c1cc(NC(=O)Cn2cc(C3=C(c4c[nH]c5ccccc45)C(=O)NC3=O)c3ccccc32)cn1C :: 1
5. CN(C)CCCNC(=O)c1cc(NC(=O)Cn2cc(C3=C(c4c[nH]c5ccccc45)C(=O)NC3=O)c3ccccc32)cn1C :: 5
6. COC(=O)c1cc(NC(=O)c2cc(NC(=O)Cn3cc(C4=C(c5c[nH]c6ccccc56)C(=O)NC4=O)c4ccccc43)cn2C)cn1C :: 2
7. CN(C)CCCNC(=O)c1cc(NC(=O)c2cc(NC(=O)c3cc(NC(=O)Cn4cc(C5=C(c6c[nH]c7ccccc67)C(=O)NC5=O)c5ccccc54)cn3C)cn2C)cn1C :: 15

====

Biological target: DNA topoisomerase 1 (Homo sapiens)
Sequence (whole entry): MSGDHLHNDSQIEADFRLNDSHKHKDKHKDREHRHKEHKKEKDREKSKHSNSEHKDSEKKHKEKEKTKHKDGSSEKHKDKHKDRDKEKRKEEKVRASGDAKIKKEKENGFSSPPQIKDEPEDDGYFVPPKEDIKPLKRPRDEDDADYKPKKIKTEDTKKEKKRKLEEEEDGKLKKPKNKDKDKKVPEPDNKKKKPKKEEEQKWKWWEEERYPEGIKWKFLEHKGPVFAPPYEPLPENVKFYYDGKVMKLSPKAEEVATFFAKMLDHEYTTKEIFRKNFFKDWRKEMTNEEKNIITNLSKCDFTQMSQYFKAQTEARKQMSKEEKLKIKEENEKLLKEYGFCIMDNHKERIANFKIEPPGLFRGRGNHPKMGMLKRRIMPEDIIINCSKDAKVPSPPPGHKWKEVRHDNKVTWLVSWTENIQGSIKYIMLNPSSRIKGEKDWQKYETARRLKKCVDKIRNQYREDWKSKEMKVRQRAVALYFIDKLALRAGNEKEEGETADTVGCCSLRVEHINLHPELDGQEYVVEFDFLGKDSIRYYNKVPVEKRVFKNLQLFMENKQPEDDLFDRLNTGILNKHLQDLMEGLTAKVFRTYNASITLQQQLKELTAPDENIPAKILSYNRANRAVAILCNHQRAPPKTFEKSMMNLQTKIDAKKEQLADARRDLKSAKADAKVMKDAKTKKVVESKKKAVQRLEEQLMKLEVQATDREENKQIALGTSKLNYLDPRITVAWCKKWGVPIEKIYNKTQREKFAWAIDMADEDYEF
Assay: Topoisomerase I DNA relaxation activity was evaluated by Fluorescence assay using Ethidium Bromide after heat denaturation of pBR322 DNA at concentration 250 uM
Settings: Escherichia coli
readout-name: Change

1. COC(=O)c1cc(NC(=O)c2cc(NC(=O)Cn3cc(C4=C(c5c[nH]c6ccccc56)C(=O)NC4=O)c4ccccc43)cn2C)cn1C :: 3%
2. COC(=O)c1cc(NC(=O)c2cc(NC(=O)c3cc(NC(=O)Cn4cc(C5=C(c6c[nH]c7ccccc67)C(=O)NC5=O)c5ccccc54)cn3C)cn2C)cn1C :: 3%
3. COC(=O)c1cc(NC(=O)Cn2cc(C3=C(c4c[nH]c5ccccc45)C(=O)NC3=O)c3ccccc32)cn1C :: 9%
4. CN(C)CCCNC(=O)c1cc(NC(=O)Cn2cc(C3=C(c4c[nH]c5ccccc45)C(=O)NC3=O)c3ccccc32)cn1C :: 3%
5. CN(C)CCCNC(=O)c1cc(NC(=O)c2cc(NC(=O)c3cc(NC(=O)Cn4cc(C5=C(c6c[nH]c7ccccc67)C(=O)NC5=O)c5ccccc54)cn3C)cn2C)cn1C :: 13%
6. CN(C)CCCNC(=O)c1cc(NC(=O)c2cc(NC(=O)Cn3cc(C4=C(c5c[nH]c6ccccc56)C(=O)NC4=O)c4ccccc43)cn2C)cn1C :: 9%
